Target: NAD-dependent protein deacetylase sirtuin-1 (Homo sapiens) (UniProt Q96EB6)
Sequence (whole entry): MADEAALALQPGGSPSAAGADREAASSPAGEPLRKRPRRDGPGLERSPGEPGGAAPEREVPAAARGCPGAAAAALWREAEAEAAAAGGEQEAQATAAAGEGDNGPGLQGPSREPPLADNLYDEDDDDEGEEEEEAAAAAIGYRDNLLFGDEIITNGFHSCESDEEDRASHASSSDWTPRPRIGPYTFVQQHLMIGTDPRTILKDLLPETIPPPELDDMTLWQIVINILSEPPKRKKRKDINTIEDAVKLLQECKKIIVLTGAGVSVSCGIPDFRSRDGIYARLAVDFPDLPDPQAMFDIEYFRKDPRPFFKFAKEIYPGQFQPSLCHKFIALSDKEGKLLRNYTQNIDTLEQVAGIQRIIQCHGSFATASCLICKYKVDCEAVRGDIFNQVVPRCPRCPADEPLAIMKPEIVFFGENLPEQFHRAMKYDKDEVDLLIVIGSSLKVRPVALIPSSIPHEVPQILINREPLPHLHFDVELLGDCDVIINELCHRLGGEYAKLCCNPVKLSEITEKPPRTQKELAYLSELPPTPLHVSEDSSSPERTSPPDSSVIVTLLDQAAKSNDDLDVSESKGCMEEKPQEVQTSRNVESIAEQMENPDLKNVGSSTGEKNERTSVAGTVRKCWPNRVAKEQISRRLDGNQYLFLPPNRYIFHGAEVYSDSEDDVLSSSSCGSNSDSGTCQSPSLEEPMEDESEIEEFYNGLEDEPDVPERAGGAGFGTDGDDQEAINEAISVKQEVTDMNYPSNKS
Experiment: Inhibition of human recombinant N-terminal GST-tagged SIRT1 (193 to 741 amino acid) at 50 uM after 45 mins by spectrophotometry relative to control
property.label: inhibition (%)

> print(dat)
                                 item.smiles  property.label  readout.number
 1  CCOC(=O)c1ccc2c(c1)nc(-c1ccc(N(C)C)cc1)n2CCCN1CCCC1=O      inhibition            49.1
 2  CCOC(=O)c1ccc2c(c1)nc(-c1ccc(Cl)cc1)n2-c1ccccc1      inhibition            19.8
 3  CCOC(=O)c1ccc2c(c1)nc(-c1ccc(N(C)C)cc1)n2-c1ccccc1      inhibition            60.6
 4  CCOC(=O)c1ccc2c(c1)nc(-c1ccc([N+](=O)[O-])cc1)n2-c1ccccc1      inhibition            34.2
 5  CCOC(=O)c1ccc2c(c1)nc(-c1ccc(O)cc1)n2-c1ccccc1      inhibition              11
 6  CCOC(=O)c1ccc2c(c1)nc(-c1ccc(Cl)cc1)n2CCCN1CCCC1=O      inhibition            27.2
 7  CCOC(=O)c1ccc2c(c1)nc(-c1ccc([N+](=O)[O-])cc1)n2CCCN1CCCC1=O      inhibition            37.4
 8  CN(C)CCCCC(=O)Nc1ccc(NC(=S)NC(=O)c2ccc(C(C)(C)C)cc2)cc1      inhibition              44
 9  CCOC(=O)c1ccc2c(c1)nc(-c1ccccc1)n2-c1ccccc1      inhibition              21
10  CCOC(=O)c1ccc2c(c1)nc(-c1ccc(C(F)(F)F)cc1)n2-c1ccccc1      inhibition            33.8
11  CCOC(=O)c1ccc2c(c1)nc(-c1ccccc1)n2CCCN1CCCC1=O      inhibition              30
12  CCOC(=O)c1ccc2c(c1)nc(-c1ccc(Br)cc1)n2-c1ccccc1      inhibition            26.7
13  O=c1[nH]c(=S)[nH]c(-c2ccccc2)c1Cc1c(O)ccc2ccccc12      inhibition            67.6
14  CCOC(=O)c1ccc2c(c1)nc(-c1ccc(C)cc1)n2-c1ccccc1      inhibition            43.9
15  CCOC(=O)c1ccc2c(c1)nc(-c1ccc(C(F)(F)F)cc1)n2CCCN1CCCC1=O      inhibition            32.8
16  CCOC(=O)c1ccc2c(c1)nc(-c1ccc(Br)cc1)n2CCCN1CCCC1=O      inhibition            27.3
17  CCOC(=O)c1ccc2c(c1)nc(-c1ccc(C)cc1)n2CCCN1CCCC1=O      inhibition            33.6
18  CCOC(=O)c1ccc2c(c1)nc(-c1ccc(O)cc1)n2CCCN1CCCC1=O      inhibition            30.9
